This collection of values is drawn from paper PMC7571187.

# Tgt: hAChE (recombinant human AChE; AChE from human erythrocytes in Table 1) (Homo sapiens, UniProt P22303)
# Construct: commercial recombinant human AChE (Sigma-Aldrich) per methods
# Sequence (P22303 32-614): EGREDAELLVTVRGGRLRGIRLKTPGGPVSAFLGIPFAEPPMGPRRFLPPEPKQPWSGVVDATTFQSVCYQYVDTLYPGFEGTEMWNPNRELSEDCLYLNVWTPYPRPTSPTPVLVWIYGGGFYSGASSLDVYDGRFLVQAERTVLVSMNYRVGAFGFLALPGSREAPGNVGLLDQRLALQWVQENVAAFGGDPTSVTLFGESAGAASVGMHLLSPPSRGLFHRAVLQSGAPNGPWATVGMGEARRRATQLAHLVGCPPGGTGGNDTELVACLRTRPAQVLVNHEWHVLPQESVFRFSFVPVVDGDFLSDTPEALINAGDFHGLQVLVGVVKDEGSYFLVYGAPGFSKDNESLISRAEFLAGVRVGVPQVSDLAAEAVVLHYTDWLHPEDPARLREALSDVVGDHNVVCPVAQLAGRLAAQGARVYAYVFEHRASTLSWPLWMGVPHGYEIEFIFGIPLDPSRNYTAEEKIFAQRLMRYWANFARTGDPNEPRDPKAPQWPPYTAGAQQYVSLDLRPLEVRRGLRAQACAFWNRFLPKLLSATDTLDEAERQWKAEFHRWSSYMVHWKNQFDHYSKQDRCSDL
# Procedure text: Ellman assay, […] nm
# Assay type: biochemical
Readout: IC50 (nM)
Use nM as the unit, but write only the number.

Example entries and their recorded answers appear below.
Item smiles	IC50 / nM
CCN(CCCCn1c(=O)c2ccccc2n(CCCCN(CC)Cc2ccccc2C#N)c1=O)Cc1ccccc1C#N	5520
Cc1cc(=O)n(CCCCCN=Cc2ccccc2C#N)c(=O)n1CCCCCN=Cc1ccccc1C#N	2320

Req: Tell me IC50 reported for `CCN(CCCCn1c(C)cc(=O)n(CCCCN(CC)Cc2ccccc2C#N)c1=O)Cc1ccccc1C#N`
Resp: 7

Req: Tell me IC50 reported for `Cc1cc(=O)n(CCCCCNCc2ccccc2C#N)c(=O)n1CCCCCNCc1ccccc1C#N`
Resp: 480

----------
# Tgt: hBChE (BChE from human plasma; serum hBChE) (Homo sapiens, UniProt P06276)
# Construct: native, commercial from human plasma / serum (Sigma-Aldrich)
# Sequence (P06276 29-602): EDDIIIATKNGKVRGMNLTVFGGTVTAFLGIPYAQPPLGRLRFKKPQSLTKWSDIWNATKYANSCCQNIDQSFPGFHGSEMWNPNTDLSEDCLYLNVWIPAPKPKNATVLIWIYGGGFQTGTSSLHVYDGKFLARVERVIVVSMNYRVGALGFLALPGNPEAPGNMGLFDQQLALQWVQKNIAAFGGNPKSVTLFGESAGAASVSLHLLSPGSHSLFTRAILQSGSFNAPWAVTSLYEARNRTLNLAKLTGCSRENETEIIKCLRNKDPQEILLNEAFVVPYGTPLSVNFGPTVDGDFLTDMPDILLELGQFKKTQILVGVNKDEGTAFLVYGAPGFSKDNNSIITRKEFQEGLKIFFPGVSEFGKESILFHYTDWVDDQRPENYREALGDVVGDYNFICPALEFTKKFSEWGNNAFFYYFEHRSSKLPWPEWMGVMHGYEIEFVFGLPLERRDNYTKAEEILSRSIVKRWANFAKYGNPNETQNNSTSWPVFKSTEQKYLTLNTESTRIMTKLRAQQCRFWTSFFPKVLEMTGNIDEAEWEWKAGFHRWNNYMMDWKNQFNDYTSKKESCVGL
# Procedure text: Ellman assay, […] nm
# Type: biochemical
Readout: IC50 (nM)
Use nM as the unit, but write only the number.

Item smiles	IC50 (nM)
Cc1cc(=O)n(CCCCCNCc2ccccc2C#N)c(=O)n1CCCCCNCc1ccccc1C#N	1800
Cc1cc(=O)n(CCCCCN=Cc2ccccc2C#N)c(=O)n1CCCCCN=Cc1ccccc1C#N	2160
CCN(CCCCn1c(C)cc(=O)n(CCCCN(CC)Cc2ccccc2C#N)c1=O)Cc1ccccc1C#N	65000

In the following, a different molecule is considered.
Req: State IC50 on hBChE (BChE from human plasma; serum hBChE) (Homo sapiens, UniProt P06276). Entry: `CCN(CCCCn1c(=O)c2ccccc2n(CCCCN(CC)Cc2ccccc2C#N)c1=O)Cc1ccccc1C#N`
Resp: 2620
